Organism: Rattus norvegicus
assay: DrugMatrix - Regimen: Daily Repeat
Format: toxicity, organism-based, Sprague-Dawley
Set-up: regimen Daily Repeat, gender Male, age 6-8 weeks
runParameters: in vivo, po, 10 mg/kg, 120 h, tissue Plasma, route oral GAVAGE, dose level Low, time 5 day, vehicle .5 % CMC
measuredEndpoint: BLOOD UREA NITROGEN (mg/dL)
Quick reminder: number only, in mg/dL, skip the unit.

Give the measured BLOOD UREA NITROGEN for O=C1CN=C(c2ccccc2)c2cc([N+](=O)[O-])ccc2N1
18

Look up and report measured BLOOD UREA NITROGEN for this entry: NS(=O)(=O)c1cc2c(cc1Cl)NCNS2(=O)=O [HYDROCHLOROTHIAZIDE]
13.67

Please list BLOOD UREA NITROGEN recorded for the compound CC(=O)O[C@]1(C(C)=O)CC[C@H]2[C@@H]3C=C(Cl)C4=CC(=O)CC[C@]4(C)[C@H]3CC[C@@]21C [CHLORMADINONE ACETATE]
14

Next:
Return BLOOD UREA NITROGEN for the following compound: COc1c(C)c2c(c(O)c1C/C=C(\C)CCC(=O)OCCN1CCOCC1)C(=O)OC2 [MYCOPHENOLATE MOFETIL]
13.67

Entry source: ChEMBL document CHEMBL3885881
